Cited source: patent US20220064312A1

Target: T1, N-ter hCCR4-hCCR8 (human)
T1 construct: chimera on Expi293 cells; remaining hCCR8 ranges derived from the stated swapped ranges and the 355-residue length; also called N-terminal region human CCR4-substituted human CCR8
T1 chain: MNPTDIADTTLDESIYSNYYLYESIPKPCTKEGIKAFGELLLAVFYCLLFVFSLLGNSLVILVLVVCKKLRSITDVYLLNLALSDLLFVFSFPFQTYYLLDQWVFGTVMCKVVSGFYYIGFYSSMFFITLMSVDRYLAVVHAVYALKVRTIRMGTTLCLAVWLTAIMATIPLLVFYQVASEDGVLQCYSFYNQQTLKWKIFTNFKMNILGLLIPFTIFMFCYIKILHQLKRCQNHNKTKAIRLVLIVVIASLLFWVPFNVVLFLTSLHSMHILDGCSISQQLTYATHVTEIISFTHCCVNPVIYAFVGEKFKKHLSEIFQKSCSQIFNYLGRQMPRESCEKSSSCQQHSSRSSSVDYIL
Experiment: flow cytometry, transfected Expi293 cells
observed-property: binding result

[
  {
    "binder": "1H4 (antibody, V domains shown, mouse hybridoma antibody) VH: EVQLVESGGRLVQPKGSLKLSCAASGFTFNTYAMYWIRQAPGKGLEWVARIRSKSNNYATYYADSVKDRFTISRDDSQSMLYLQMNNLKTEDTAMYYCVRARFYYSDYGYAMDYWGQGTSVTVSS VL: DIVMTQAAPSVPVTPGESVSISCRSSKSLLHSNGNTYLYWFLQRPGQSPQLLIYRMSNLASGVPDRFSASGSGTAFTLRISRVEAEDVGVYYCMQHLEYPLTFGAGTKLELKR",
    "observed-property": "binding result",
    "value-observed": "no binding"
  },
  {
    "binder": "27G1 (antibody, V domains shown, mouse hybridoma antibody) VH: EVQLVESGGRLVQPKGSLKLSCAASGFAFNTYAMYWIRQAPGKGLEWVARIRSKSNNYATYYADSVKDRFTISRDDSQSMLYLQMNNLKTEDTAMYYCVRARFYYSDYGYAMDYWGQGTSVTVSS VL: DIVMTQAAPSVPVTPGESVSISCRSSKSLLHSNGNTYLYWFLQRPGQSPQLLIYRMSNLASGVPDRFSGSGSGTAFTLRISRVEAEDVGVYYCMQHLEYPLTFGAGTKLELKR",
    "observed-property": "binding result",
    "value-observed": "no binding"
  }
]
